Hello, the source for this data is paper PMC5698806, in case you need it.

- system_tested: T1, Tpz1-Poz1ΔN complex (S. pombe, UniProt O14246 475-508; O13852 29-249)
- T1 sequence (looked up) 1: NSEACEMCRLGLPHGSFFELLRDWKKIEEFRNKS
- T1 sequence (looked up) 2: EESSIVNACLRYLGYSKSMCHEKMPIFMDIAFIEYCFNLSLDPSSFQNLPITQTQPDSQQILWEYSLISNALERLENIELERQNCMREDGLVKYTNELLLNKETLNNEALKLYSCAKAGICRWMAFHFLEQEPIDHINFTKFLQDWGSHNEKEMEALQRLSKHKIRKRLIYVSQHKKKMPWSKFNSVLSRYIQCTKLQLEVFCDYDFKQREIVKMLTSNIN
- run_description: ITC
measured_attribute: pKd
API: returns pKd as number; meaning -log10 of concentration in mol/L.

Ask: Which pKd value belongs to Rap1^446-523 (domain or fragment, S. pombe, UniProt Q96TL7 446-523, looked up) EKTLRETSFRSLDDMSLRKSNSDNIFVKPGEDLEIPLLSDYSDSENISEKSSDDEEAFEKQVTSSYSSPIKVKSQGKS ?
Reply: 5.34
